This collection of values is drawn from patent US20250360134A1.

- Tested on: Plasmodium falciparum W2
- test-details: In vitro antiplasmodial activity, SYBR Green I, strain W2
- run-conditions: Plasmodium falciparum, W2, 48 h, read-out: IC50 Plasmodium falciparum W2, chloroquine-resistant strain W2, 48-hour incubation
pIC50: −log10 of the molar value. Structures can show the parent of a compound that is named as a salt.
Hi, to clarify the labels: 1 covers pIC50 from 6 upward, -1 covers anything below 6.

Input line: Check if pIC50 >= 6 (inclusive). Item: CN1CCN(CCCNCc2ccc(-c3nc(-c4ccc(CNCCCN5CCN(C)CC5)cc4)c4ccsc4n3)cc2)CC1 [Compound 27B, oxalate]
Output line: -1

Input line: Check if pIC50 >= 6 (inclusive). Item: CN(C)CCCNCc1ccc(-c2nc(NCCCN(C)C)nc3sccc23)cc1 [Compound 28B]
Output line: -1

Input line: Check if pIC50 >= 6 (inclusive). Item: CN(C)CCCNCc1cc(-c2nc(Cl)nc3c2ccn3-c2ccccc2)cs1 [Compound 20B, oxalate]
Output line: -1

Input line: Check if pIC50 >= 6 (inclusive). Item: CN(C)CCCCCNCc1ccc(-c2nc(-c3ccccc3)c3ccn(-c4ccc(CNCCCCCN(C)C)cc4)c3n2)cc1 [Compound 35B, oxalate]
Output line: -1

Input line: Check if pIC50 >= 6 (inclusive). Item: CN(C)CCCNCc1ccc(-c2nc(-c3ccc(CNCCCN(C)C)cc3)c3sccc3n2)cc1 [Compound 29B]
Output line: -1

Input line: Check if pIC50 >= 6 (inclusive). Item: CN(C)CCCNCc1ccc(-c2nc3c(c(-c4ccc(CNCCCN(C)C)cc4)n2)CCN(C(=O)OC(C)(C)C)C3)cc1 [Compound 24B]
Output line: 1
